Data provenance: patent US10071967B2

# TEST DESCRIPTION: log P by HPLC on a reversed-phase column (C 18), EEC Directive 79/831 Annex V.A8
# Format: physicochemical
# CONDITION DETAILS: HPLC, reversed-phase column (C 18), 40° C.; 0.1% aqueous formic acid and acetonitrile, linear gradient 10% to 90% acetonitrile
ASSAY ENDPOINT: logP

Examples with answers:
CCC1(c2cc(C)c(F)cc2CN(C(=O)c2cc(C)oc2C(F)F)C2CC2)CC1 [Example 1.080]; 5.25
C#CC1(c2ccc(Cl)cc2CN(C(=O)c2cn(C)nc2C(F)F)C2CC2)CC1 [Example 1.063]; 3.39
CCC1(c2cc(C)c(F)cc2CN(C(=O)c2cc(C)oc2C)C2CC2)CC1 [Example 1.083]; 5.34
CCC1(c2ccc(C)cc2CN(C(=O)c2cn(C)nc2C(F)F)C2CC2)CC1 [Example 1.092]; 4.19

[I] C#CC1(c2ccc(C)cc2CN(C(=O)c2cn(C)nc2C(F)F)C2CC2)CC1 [Example 1.064]
[II] Cc1nn(C)c(F)c1C(=O)N(Cc1ccc(Cl)cc1C1(CC(C)C)CC1)C1CC1 [Example 1.143]
Enquiry: Lower value of logP belongs to which: I or II ? Reply briefly: the label of your chosen item.
Return: I
(I: 3.31, II: 5.08)
